Recorded inhibition values for a group of molecules are listed next.
Biological target: Aurora kinase B (Homo sapiens) (UniProt Q96GD4);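 note: reported values are averaged percent inhibition of Aurora B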
Sequence (Q96GD4 whole entry): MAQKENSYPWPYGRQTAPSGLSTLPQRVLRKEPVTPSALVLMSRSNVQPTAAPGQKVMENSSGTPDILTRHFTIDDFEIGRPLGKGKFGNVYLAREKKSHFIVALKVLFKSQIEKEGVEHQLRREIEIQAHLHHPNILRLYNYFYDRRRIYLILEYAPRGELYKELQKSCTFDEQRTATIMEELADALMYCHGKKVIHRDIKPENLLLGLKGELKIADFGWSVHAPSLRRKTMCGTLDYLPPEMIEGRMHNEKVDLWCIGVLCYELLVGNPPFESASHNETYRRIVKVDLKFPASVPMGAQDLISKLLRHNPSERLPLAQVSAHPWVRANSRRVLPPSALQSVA
Settings: at 0.1 µM
# unit: % | format: bare number

Lookup: // returns reported inhibition for input NS(=O)(=O)c1ccc(N/N=C2\C(=O)Nc3ccc(C(=O)NCCc4c[nH]cn4)cc32)cc1
Found: 6

Lookup: Quick one: CS(=O)(=O)CCNCc1nc(-c2ccc3ncnc(Nc4ccc(F)c(Cl)c4)c3c2)cs1
Found: 3.41

Lookup: Same for Nc1ncnc2occ(-c3ccc(NC(=O)Nc4cccc(C(F)(F)F)c4)cc3)c12
Found: 30.7

Lookup: Would you mind doing COC(=O)Nc1nc2cc(Oc3cccc(NC(=O)Nc4cc(C(F)(F)F)ccc4F)c3)ccc2[nH]1 as well?
Found: -1.59

Lookup: Next entry: CS(=O)(=O)CCNCc1ccc(-c2ccc3ncnc(Nc4ccc(OCc5cccc(F)c5)c(C(F)(F)F)c4)c3c2)o1
Found: 2.77
